# TARGET_OF_ASSAY: C-C chemokine receptor type 3 (Homo sapiens) (UniProt P51677)
# Sequence (P51677 whole entry): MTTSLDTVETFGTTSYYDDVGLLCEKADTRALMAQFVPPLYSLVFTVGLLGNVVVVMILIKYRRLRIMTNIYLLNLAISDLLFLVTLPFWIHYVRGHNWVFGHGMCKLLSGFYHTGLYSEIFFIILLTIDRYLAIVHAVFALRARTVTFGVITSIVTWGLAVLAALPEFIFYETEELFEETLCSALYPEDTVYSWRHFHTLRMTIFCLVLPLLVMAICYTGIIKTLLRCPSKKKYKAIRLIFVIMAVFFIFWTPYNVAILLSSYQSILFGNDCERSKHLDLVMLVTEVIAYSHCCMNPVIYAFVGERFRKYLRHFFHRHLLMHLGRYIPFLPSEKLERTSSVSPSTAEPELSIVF
# EXPERIMENT_NOTES: Displacement of [3H]-4-(2,4-dichloro-3-methylphenoxy)-l'-[4- (methylsulfonyl)benzoyl]-l,4'-bipiperidine from human recombinant CCR3 expressed in CHOK1 cells at 1 uM after 2 hrs by scintillation counting analysis
# Assay type: cell-based
# CONDITION_INFO: CHO-K1
// reported inhibition per item

MOLECULE	MEASURED_RESULT
N#Cc1cccc(C(=O)NC[C@@H](O)CN2CCC(Oc3ccc(Cl)c(Cl)c3)CC2)c1	> 70%
CN(C[C@@H](O)CN1CCC(Oc2ccc(Cl)c(Cl)c2)CC1)C(=O)c1c[nH]c(=O)c2ccccc12	> 70%
N#Cc1cccc(OC[C@@H](O)CNC2CCN(Cc3ccc(Cl)c(Cl)c3)CC2)c1	> 70%
O[C@@H](CNC1CCN(Cc2ccc(Cl)c(Cl)c2)CC1)COc1ccc2ncsc2c1	> 70%

Report inhibition, nothing else, for this molecule: CS(=O)(=O)c1ccccc1C(=O)NC[C@@H](O)CN1CCC(Oc2ccc(Cl)c(Cl)c2)CC1
> 70%

Please supply the value of reported inhibition for the item O=C(NC[C@@H](O)CN1CCC(Oc2ccc(Cl)c(Cl)c2)CC1)c1n[nH]c2ccccc12
> 70%

// Input: O=C(NC[C@@H](O)CN1CCC(Oc2ccc(Cl)c(Cl)c2)CC1)c1c[nH]c(=O)c2ccccc12 . Output its inhibition only.
> 70%

For the molecule N#Cc1cccc(OC[C@@H](O)CCN2CCC(Oc3ccc(Cl)c(Cl)c3)CC2)c1 , give its reported inhibition.
> 70%

# return recorded inhibition for input O=C(NC[C@@H](O)CN1CCC(Oc2ccc(Cl)c(Cl)c2)CC1)c1n[nH]c(=O)c2ccccc12
> 70%

Please look at this molecule and report its inhibition: N#Cc1cccc(OC[C@@H](O)CN2CCC(Oc3ccc(Cl)c(Cl)c3)CC2)c1
> 70%

Specify reported inhibition for the molecule shown: COc1cccc(SC[C@@H](O)CN2CCC(Oc3ccc(Cl)c(Cl)c3)CC2)c1
> 70%

Name the recorded inhibition of the item CS(=O)(=O)c1ccccc1C(=O)NCC(O)CNC1CCN(Cc2ccc(Cl)c(Cl)c2)CC1 (centres undefined) in your answer.
> 70%

Supply reported inhibition belonging to this molecule: N#Cc1cccc(S(=O)(=O)NC[C@@H](O)CN2CCC(Oc3ccc(Cl)c(Cl)c3)CC2)c1
> 70%

###

# TARGET_OF_ASSAY: C-C chemokine receptor type 3 (Homo sapiens)
# Sequence (P51677 whole entry): as above
# EXPERIMENT_NOTES: Displacement of [3H]-4-(2,4-dichloro-3-methylphenoxy)-l'-[4- (methylsulfonyl)benzoyl]-l,4'-bipiperidine from human recombinant CCR3 expressed in CHOK1 cells after 2 hrs by scintillation counting analysis
pKi: −log10 of the molar value.
ENDPOINT: pKi

Solved cases (5 shown):
COMPOUND	pKi
N#Cc1cccc(OC[C@@H](O)CCN2CCC(Oc3ccc(Cl)c(Cl)c3)CC2)c1	7.50
N#Cc1cccc(OC[C@@H](O)CNC2CCN(Cc3ccc(Cl)c(Cl)c3)CC2)c1	6.50
O=C(NC[C@@H](O)CN1CCC(Oc2ccc(Cl)c(Cl)c2)CC1)c1cc(=O)[nH]c2ccccc12	8.10
O=C(NC[C@@H](O)CN1CCC(Oc2ccc(Cl)c(Cl)c2)CC1)n1c(=O)[nH]c2ccccc21	8.60
N#Cc1ccc(OC[C@@H](O)CNC2CCN(Cc3ccc(Cl)c(Cl)c3)CC2)cc1	6.90

1 = CN(C[C@@H](O)CN1CCC(Oc2ccc(Cl)c(Cl)c2)CC1)C(=O)c1c[nH]c(=O)c2ccccc12
2 = CS(=O)(=O)c1ccccc1C(=O)NCC(O)CNC1CCN(Cc2ccc(Cl)c(Cl)c2)CC1 (centres undefined)
Hi! Which is lower in terms of pKi, the first one 1 or the second one 2 ? Response format: the label of the selected entry.
2
(2: 7.10, 1: 8.60)

1 = N#Cc1cccc(C(=O)NC[C@@H](O)CN2CCC(Oc3ccc(Cl)c(Cl)c3)CC2)c1
2 = O=C(NC[C@@H](O)CN1CCC(Oc2ccc(Cl)c(Cl)c2)CC1)c1cn2cc(F)ccc2n1
Higher pKi: 1 or 2 ? Identify your pick by its label.
1
(1: 7.70, 2: 6.70)
